target-desc: Hypoxia-inducible factor 1-alpha (Homo sapiens, UniProt Q16665)
Sequence (Q16665 whole entry): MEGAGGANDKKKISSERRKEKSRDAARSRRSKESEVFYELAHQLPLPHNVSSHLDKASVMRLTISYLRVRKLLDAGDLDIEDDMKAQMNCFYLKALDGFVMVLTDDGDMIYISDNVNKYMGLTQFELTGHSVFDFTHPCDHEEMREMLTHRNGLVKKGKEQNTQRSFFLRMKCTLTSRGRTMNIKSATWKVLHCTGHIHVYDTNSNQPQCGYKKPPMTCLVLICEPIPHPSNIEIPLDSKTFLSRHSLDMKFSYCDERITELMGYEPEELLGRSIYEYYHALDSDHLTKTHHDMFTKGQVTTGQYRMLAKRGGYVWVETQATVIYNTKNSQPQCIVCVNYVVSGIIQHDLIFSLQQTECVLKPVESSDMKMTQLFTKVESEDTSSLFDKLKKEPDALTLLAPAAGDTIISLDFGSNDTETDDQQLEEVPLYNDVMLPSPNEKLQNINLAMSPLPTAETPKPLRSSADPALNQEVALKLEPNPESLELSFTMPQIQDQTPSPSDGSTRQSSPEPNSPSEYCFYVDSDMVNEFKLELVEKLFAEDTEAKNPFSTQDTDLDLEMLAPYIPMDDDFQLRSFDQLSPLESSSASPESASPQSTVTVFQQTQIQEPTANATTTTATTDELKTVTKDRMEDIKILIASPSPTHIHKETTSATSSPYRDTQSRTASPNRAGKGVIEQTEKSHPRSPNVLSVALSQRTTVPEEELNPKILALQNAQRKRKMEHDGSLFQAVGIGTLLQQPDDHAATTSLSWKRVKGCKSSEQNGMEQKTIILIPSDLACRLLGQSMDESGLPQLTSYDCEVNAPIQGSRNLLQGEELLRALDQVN
procedure-summary: Inhibition of HIF-1alpha in human Hep3B cells cotransfected with pGL3-HRE-luciferase plasmid after 24 hrs by dual-luciferase reporter assay
attribute-measured: IC50 (nM)
Answers are plain numbers, in nM.

Incoming: I have this compound here, CC1(C)Oc2cc3oc(-c4cc(O)cc(O)c4)cc3cc2CC1O (stereo unspecified) [Moracin P] , and I need its recorded IC50.
Outgoing: 0.65
